Ref: patent US4820727A

The entries below come with measured inhibition at 10 µM values attached.
- measured.on: aldose reductase (Bos taurus)
- Construct: preparation of the enzyme from bovine lens; from tissue; host or cells: bovine lens
- test.method.notes: In vitro aldose reductase inhibition (modified Hayman and Kinoshita procedure, enzyme from bovine lens)
- Format: biochemical
- condition.notes: read-out: % Inhibition IN VITRO 10^-5 M
Give your result in % as a bare value.

Past entries and their recorded results:
# smi, measured.on, inhibition at 10 µM / %
rows = [
    ("COC(=O)N(CC(=O)O)C(=O)c1c(F)ccc2c(C(F)(F)F)c(OC)ccc12", "aldose reductase (Bos taurus)", 99),
    ("COC(=O)N(CC(=O)O)C(=O)c1c(Br)ccc2c(C(F)(F)F)c(OC)ccc12", "aldose reductase (Bos taurus)", 97),
    ("CCOC(=O)N(CC(=O)O)C(=O)c1c(Br)ccc2c(C(F)(F)F)c(OC)ccc12", "aldose reductase (Bos taurus)", 98),
]

For the compound CCOC(=O)N(CC(=O)O)C(=O)c1c(F)ccc2c(C(F)(F)F)c(OC)ccc12 , report inhibition at 10 µM.
99

For the compound COC(=O)N(CC(=O)O)C(=O)c1c(Cl)ccc2c(C(F)(F)F)c(OC)ccc12 , report inhibition at 10 µM.
98

For the compound COC(=O)N(CC(N)=O)C(=O)c1c(F)ccc2c(C(F)(F)F)c(OC)ccc12 , report inhibition at 10 µM.
2

For the compound CCOC(=O)N(CC(=O)O)C(=O)c1c(OCC(F)(F)F)ccc2c(C(F)(F)F)c(OC)ccc12 , report inhibition at 10 µM.
98
